Known Emax (fold induction over background), PC3 (fold over background) of a selection of binders
# system name: CD137 on Jurkat reporter cells (Promega kit CS196005) (UniProt Q07011)
# Sequence (Q07011 24-255 limits assumed): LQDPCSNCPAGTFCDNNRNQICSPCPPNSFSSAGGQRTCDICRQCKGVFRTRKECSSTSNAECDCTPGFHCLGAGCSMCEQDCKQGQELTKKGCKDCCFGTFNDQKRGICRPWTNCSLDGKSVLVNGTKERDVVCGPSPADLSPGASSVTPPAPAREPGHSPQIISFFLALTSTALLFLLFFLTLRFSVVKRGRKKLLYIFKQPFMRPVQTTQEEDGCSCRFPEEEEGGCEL
# protocol details: cell-based or functional assay
Starred links: 1 amine or outer side, 2 acyl side, 3 side chain; linkers in the order of their positions; H or OH if unused. Positions of bridges follow the written chain, without caps; N, C: chain ends. Non-standard residues stand in square brackets, D forms with d. Chains are numbered I, II in the order given. No end group written: not given here. *: point of attachment. TATA = O=C(CC[*:1])N1CN(C(=O)CC[*:2])CN(C(=O)CC[*:3])C1; Dip = N[C@H](C(=O)O)C(c1ccccc1)c1ccccc1; Hyp = O=C(O)[C@@H]1C[C@@H](O)CN1; hArg = N=C(N)NCCCC[C@H](N)C(=O)O; tBuAla = CC(C)(C)C[C@H](N)C(=O)O; Cba = N[C@@H](CC1CCC1)C(=O)O; dK(PYA) = not defined here; Nle = CCCC[C@H](N)C(=O)O; Pent4ynoyl = C#CCCC(=O)*
Could you keep your reply to the number by itself?

>>> test_result("BCY13047 (linker I:4-I:11-I:18, II:1-II:8-II:15 via TATA; not fully specified (N-terminus, bridges); reading uncertain; also: two CD137 bicycles per complex (EphA2:CD137 1:2)) peptide 1: A[hArg]DC[Hyp]LVNPLCL[Dip]P[dD]WTC peptide 2: Ac-C[tBuAla]PE[dK(PYA)]PYCFADPY[Nle]CA")
46.4
>>> test_result("BCY13050 (linker I:4-I:11-I:18, II:1-II:8-II:15 via TATA; not fully specified (N-terminus, bridges); also: linker joins chain 1 to two chain 2 copies via PYA triazoles) peptide 1: A[hArg]DC[Hyp][Cba]VNPLCLHP[dD]W[hArg]C peptide 2: Ac-C[tBuAla]PE[dK](Pent4ynoyl)PYCFADPY[Nle]CA")
42.5

With those in mind, consider the next binder.
Could you tell me which Emax (fold induction over background), PC3 (fold over background) is on file for BCY12979 (linker I:4-I:11-I:18, II:1-II:8-II:15 via TATA; not fully specified (bridges); reading uncertain; also: two CD137 bicycles per complex (EphA2:CD137 1:2)) peptide 1: A[hArg]DC[Hyp]LVNPLCLHP[dD]W[hArg]C peptide 2: Ac-C[tBuAla]PE[dK(PYA)]PYCFADPY[Nle]CA ?
71.6
